Each record here notes measured solubility at 24 h.
- experimentalDetails: Kinetic solubility determination in PBS
- Format: physicochemical
- runConditions: phosphate buffered saline (PBS 1×), 21 °C, pH 7.4, aqueous buffer, kinetic from dmso stock, PBS 1X pH 7.4, 2.0% DMSO, 24 hour incubation at ambient temperature, read-out: Solubility in aqueous PBS Buffer (1X, pH 7.4)

Worked set:
* CC[C@H](C)[C@H](NC(=O)CC1(CC(=O)O)CCCC1)C(=O)NCC(=O)N1c2ccccc2C[C@H]1C(=O)NCc1nn[nH]n1 [Example A19] | 672 µM
* CC(C)[C@H](NC(=O)CCC(=O)O)C(=O)NCC(=O)N1c2ccccc2C[C@H]1C(=O)NCc1nn[nH]n1 [Example A46] | > 750 µM
* CC[C@H](C)[C@H](NC(=O)CCC(C)(C)C(=O)O)C(=O)NCC(=O)N1c2ccccc2C[C@H]1C(=O)NCc1nn[nH]n1 [Example A52] | > 750 µM

Request: If you can, please state the reported solubility at 24 h value of CC[C@H](C)[C@H](NC(=O)Cc1ccccc1)C(=O)NCC(=O)N1c2cc(N)ccc2C[C@H]1C(=O)NCc1nn[nH]n1 [Example C20] .
Response: 596 µM

Request: If you can, please state the reported solubility at 24 h value of CC[C@H](C)[C@H](NC(=O)C(C)CC(=O)O)C(=O)NCC(=O)N1c2ccccc2C[C@H]1C(=O)NCc1nn[nH]n1 (single isomer, unassigned) [Example A30-1] .
Response: > 750 µM

Request: If you can, please state the reported solubility at 24 h value of CC[C@H](C)[C@H](NC(=O)C1CC=CCC1C(=O)O)C(=O)NCC(=O)N1c2ccccc2C[C@H]1C(=O)NCc1nn[nH]n1 (single isomer, unassigned) [Example A21-1] .
Response: > 750 µM

----------
- experimentalDetails: Kinetic solubility determination in PBS
- Format: physicochemical
- runConditions: phosphate buffered saline (PBS 1×), 21 °C, pH 7.4, aqueous buffer, kinetic from dmso stock, PBS 1X pH 7.4, 2.0% DMSO, 24 hour incubation at ambient temperature, read-out: Solubility in aqueous PBS Buffer (1X, pH 7.4), ug/mL
measuredParameter: solubility at 24 h (µg/mL)

Worked set:
* CC[C@H](C)[C@H](NC(=O)Cc1ccccc1)C(=O)N[C@H](C)C(=O)N1c2ccccc2C[C@H]1C(=O)NCc1nn[nH]n1 | 61
* CC[C@H](C)[C@H](NC(=O)Cc1cccnc1)C(=O)NCC(=O)N1c2ccccc2C[C@H]1C(=O)NCc1nn[nH]n1 | 74
* CC[C@H](C)[C@H](NC(=O)CC1(CC(=O)O)CCCC1)C(=O)NCC(=O)N1c2ccccc2C[C@H]1C(=O)NCc1nn[nH]n1 | 391

I = CC[C@H](C)[C@H](NC(=O)Cc1ccccc1)C(=O)NCC(=O)N1c2ccccc2C[C@H]1C(=O)NCc1c[nH]nn1
II = CC[C@H](C)[C@H](NC(=O)/C=C\C(=O)O)C(=O)NCC(=O)N1c2ccccc2C[C@H]1C(=O)NCc1nn[nH]n1
III = CC[C@H](C)[C@H](NC(=O)C(CCC(=O)O)c1ccccc1)C(=O)NCC(=O)N1c2ccccc2C[C@H]1C(=O)NCc1nn[nH]n1 (single isomer, unassigned)
Request: # rank by solubility at 24 h, ascending (min first) // format: requested-order list of labels
Response: I, III, II
